measurement_target: human TLR7 (Homo sapiens (Human), UniProt Q9NYK1)
Sequence (Q9NYK1 27-1049): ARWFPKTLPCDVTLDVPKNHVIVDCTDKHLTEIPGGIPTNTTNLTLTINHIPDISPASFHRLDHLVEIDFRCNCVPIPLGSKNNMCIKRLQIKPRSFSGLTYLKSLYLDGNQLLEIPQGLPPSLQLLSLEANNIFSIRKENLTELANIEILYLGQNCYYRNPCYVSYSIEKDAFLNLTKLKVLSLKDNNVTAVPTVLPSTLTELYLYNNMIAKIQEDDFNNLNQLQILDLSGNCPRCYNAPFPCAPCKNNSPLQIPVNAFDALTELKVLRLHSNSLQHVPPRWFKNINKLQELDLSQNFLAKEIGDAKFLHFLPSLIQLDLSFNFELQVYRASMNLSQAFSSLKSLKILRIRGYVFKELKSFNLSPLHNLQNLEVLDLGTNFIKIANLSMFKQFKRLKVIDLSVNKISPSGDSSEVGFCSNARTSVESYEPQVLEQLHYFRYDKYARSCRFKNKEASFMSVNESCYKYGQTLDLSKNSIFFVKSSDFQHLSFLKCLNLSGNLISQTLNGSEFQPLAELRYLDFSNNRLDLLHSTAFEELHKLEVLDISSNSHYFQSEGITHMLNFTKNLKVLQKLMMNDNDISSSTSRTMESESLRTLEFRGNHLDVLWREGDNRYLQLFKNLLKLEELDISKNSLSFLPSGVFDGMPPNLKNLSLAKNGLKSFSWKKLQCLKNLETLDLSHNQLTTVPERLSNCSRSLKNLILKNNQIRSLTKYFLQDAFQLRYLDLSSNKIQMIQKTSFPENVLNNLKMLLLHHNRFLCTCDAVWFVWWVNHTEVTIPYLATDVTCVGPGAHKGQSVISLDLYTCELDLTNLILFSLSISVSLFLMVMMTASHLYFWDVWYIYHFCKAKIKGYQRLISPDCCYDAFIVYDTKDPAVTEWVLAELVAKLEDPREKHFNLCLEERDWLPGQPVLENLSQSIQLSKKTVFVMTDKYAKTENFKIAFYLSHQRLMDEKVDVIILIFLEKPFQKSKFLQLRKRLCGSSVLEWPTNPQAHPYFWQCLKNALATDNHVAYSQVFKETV
experimental_details: TLR7 inhibition reporter assay (HEK-Blue SEAP reporter, gardiquimod stimulation)
Format: cell-based
condition_notes: HEK-Blue cells overexpressing human TLR7, gardiquimod 7.5 μM
pIC50: −log10 of the molar value. Structures can show the parent of a compound that is named as a salt.
observable: pIC50

{"columns": ["molecule", "measured_result"],
 "data": [
  ["Cc1cc(-c2[nH]c3ccc(C(C)(C)C(=O)N4CC5CNC5C4)cc3c2C(C)C)ccn1 (stereo not shown)", 7.15]
]}

[I] CCc1c(-c2ccc(OC)c(OC)c2)[nH]c2ccc(C(=O)N3CC4CN(CC(=O)NC)CC4C3)cc12 (stereo not shown)
[II] Cc1cc(-c2[nH]c3ccc(C(=O)N4CC5CNCC5C4)cc3c2C(C)C)cc(C)n1 (stereo not shown) [Example 107, HCl]
[III] Cc1cc(-c2[nH]c3ccc(C(=O)NC4CCN(C(C)C)CC4)cc3c2C(C)C)cc(C)n1
Incoming: Rank items: key pIC50, increasing. Lab note: final answer is the ordered label list.
Outgoing: I, II, III

###

measurement_target: human TLR9 (Homo sapiens (Human), UniProt Q9NR96)
Sequence (Q9NR96 26-1032): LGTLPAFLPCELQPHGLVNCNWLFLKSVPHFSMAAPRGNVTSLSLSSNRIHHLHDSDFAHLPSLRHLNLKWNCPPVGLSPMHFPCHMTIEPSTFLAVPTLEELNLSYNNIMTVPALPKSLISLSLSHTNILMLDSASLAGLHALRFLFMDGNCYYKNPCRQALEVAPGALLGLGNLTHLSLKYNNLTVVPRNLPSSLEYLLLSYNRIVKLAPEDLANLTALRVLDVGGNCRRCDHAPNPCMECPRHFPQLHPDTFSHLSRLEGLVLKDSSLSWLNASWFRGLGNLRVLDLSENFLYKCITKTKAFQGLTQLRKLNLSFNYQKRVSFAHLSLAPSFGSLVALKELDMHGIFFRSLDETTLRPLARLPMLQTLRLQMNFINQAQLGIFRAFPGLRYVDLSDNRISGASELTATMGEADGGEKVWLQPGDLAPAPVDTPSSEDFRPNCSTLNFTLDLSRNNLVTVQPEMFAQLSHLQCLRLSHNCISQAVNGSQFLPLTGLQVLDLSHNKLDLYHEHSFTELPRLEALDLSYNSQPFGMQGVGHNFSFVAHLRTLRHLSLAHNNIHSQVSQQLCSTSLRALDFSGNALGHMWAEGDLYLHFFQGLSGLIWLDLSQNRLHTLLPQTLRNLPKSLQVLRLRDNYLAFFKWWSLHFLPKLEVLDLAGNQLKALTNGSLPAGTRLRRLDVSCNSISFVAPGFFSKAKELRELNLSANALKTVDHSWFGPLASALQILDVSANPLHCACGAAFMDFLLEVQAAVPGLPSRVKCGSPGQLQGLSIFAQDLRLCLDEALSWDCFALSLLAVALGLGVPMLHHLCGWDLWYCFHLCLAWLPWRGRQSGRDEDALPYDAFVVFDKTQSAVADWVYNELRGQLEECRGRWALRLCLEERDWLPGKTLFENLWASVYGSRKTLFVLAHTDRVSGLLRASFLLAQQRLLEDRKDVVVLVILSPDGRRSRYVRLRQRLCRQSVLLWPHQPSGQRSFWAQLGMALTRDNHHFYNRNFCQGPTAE
experimental_details: TLR9 inhibition reporter assay (HEK-Blue SEAP reporter, ODN2006 stimulation);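 also: SEAP reporter under IFN-β minimal promoter with five NF-κB and AP-1 sites, 22 h incubation, compounds 0.05 nM–50 µM, inhibition relative to agonist plus DMSO versus known inhibitor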
condition_notes: read-out: TLR9 IC50; HEK-Blue cells overexpressing human TLR9, ODN2006 5 nM, SEAP reporter
pIC50: −log10 of the molar value.
observable: pIC50

{"columns": ["molecule", "measured_result"],
 "data": [
  ["Cc1cc(-c2[nH]c3ccc(C(C)(C)C(=O)N4CCC(N)CC4)cc3c2C(C)C)ccn1 [Example 153]", 6.25]
]}

[1] COc1ccc(-c2[nH]c3ccc(C(=O)N4CC5CN(C(C)C)CC5C4)cc3c2C(C)C)cc1OC (stereo not shown) [Example 14]
[2] COc1ccc(-c2[nH]c3ccc(C(=O)N4CC5CN(C(=O)CN(C)C)CC5C4)cc3c2CC(F)(F)F)cc1OC (stereo not shown) [Example 89]
Incoming: Between 1 and 2 , whose recorded pIC50 is greater? Write down the label of the entry you select.
Outgoing: 1
(1: 5.93, 2: 5.23)

[A] Cc1cc(-c2[nH]c3ccc(C(C)C(=O)NC4CCC(N)CC4)cc3c2C(C)C)ccn1 (stereo not shown) [Example 217]
[B] CNC(=O)CN1CC2CN(C(=O)c3ccc4[nH]c(-c5ccnc(C)c5)c(C(C)C)c4c3)CC2C1 (stereo not shown) [Example 118]
[C] COc1ccc(-c2[nH]c3ccc(C(=O)N4CC5CN(CC(=O)N(C)C)CC5C4)cc3c2CC(F)(F)F)cc1OC (stereo not shown) [Example 90]
Incoming: Order each entry by recorded pIC50, climbing from the minimum. Please list each label once, in the requested order.
Outgoing: B, C, A
(B: 4.64, C: 5.39, A: 6.00)

###

measurement_target: human TLR9 (Homo sapiens (Human))
experimental_details: TLR9 inhibition reporter assay (HEK-Blue SEAP reporter, ODN2006 stimulation)
condition_notes: read-out: TLR9 IC50; HEK-Blue cells overexpressing human TLR9, ODN2006 5 nM, SEAP reporter
observable: IC50 (µM)

Consider the following illustrative entries.
{"columns": ["compound", "measured_result"],
 "data": [
  ["Cc1cc(-c2[nH]c3ccc(C(C)(C)C(=O)N[C@@H]4CCNC4)cc3c2C(C)C)ccn1", 0.895],
  ["CCc1c(-c2ccc(OC)c(OC)c2)[nH]c2ccc(C(=O)NCCN3CCCCC3)cc12", 2.41],
  ["Cc1cc(-c2[nH]c3ccc(C(=O)N(C)Cc4cccc(N)c4)cc3c2C(C)C)cc(C)n1", 27.1],
  ["CNCC(=O)N1CC2CN(C(=O)c3ccc4[nH]c(-c5ccnc(C)c5)c(C(C)C)c4c3)CC2C1 (stereo not shown)", 2.23],
  ["Cc1cc(-c2[nH]c3ccc(C(C)C(=O)N[C@@H]4CCCNC4)cc3c2C(C)C)ccn1 (stereo partly shown) [Example 196]", 0.866],
  ["CCc1c(-c2ccc(OC)c(OC)c2)[nH]c2ccc(C(=O)N3CCCN(c4ncccn4)CC3)cc12", 16.6],
  ["COc1ccc(-c2[nH]c3ccc(C(=O)N4CCCN(C)CC4)cc3c2C(C)C)cc1OC", 3.01],
  ["CCc1c(-c2ccc(OC)c(OC)c2)[nH]c2ccc(C(=O)N(CCOC)CCOC)cc12", 40.3],
  ["CCc1c(-c2ccc(OC)c(OC)c2)[nH]c2ccc(C(=O)NCCC3CCCN3C)cc12 (stereo not shown)", 1.81],
  ["Cc1cc(-c2[nH]c3ccc(C(C)(C)C(=O)N(C)C4CN5CCC4CC5)cc3c2C(C)C)ccn1 (stereo not shown)", 3.52]
]}

[P] Cc1cc(-c2[nH]c3ccc(C(C)C(=O)N(C)C4CCCNC4)cc3c2C(C)C)ccn1 (stereo not shown) [Example 209]
[Q] CCc1c(-c2ccc(OC)c(OC)c2)[nH]c2ccc(C(=O)N3CCN(C4CCN(C)CC4)CC3)cc12
[R] CCc1c(-c2ccc(OC)c(OC)c2)[nH]c2ccc(C(=O)N(C)CCN(C)C)cc12
[S] CCc1c(-c2ccc(OC)c(OC)c2)[nH]c2ccc(C(=O)N3CCN(CCc4ccccc4)CC3)cc12
[T] COc1cc(-c2[nH]c3ccc(C(=O)N(C)CCN(C)C)cc3c2C(C)C)cn2ncnc12
Incoming: Put the compounds in ascending order of IC50. Please write the labels in the order that was asked for.
Outgoing: P, Q, T, R, S

[a] CCc1c(-c2ccc(OC)c(OC)c2)[nH]c2ccc(C(=O)N3CCN(CC)CC3)cc12
[b] Cc1cc(-c2[nH]c3ccc(C(C)(C)C(=O)N4CCC5(CCN(C)C5)CC4)cc3c2C(C)C)ccn1
[c] CCc1c(-c2ccnc3[nH]ccc23)[nH]c2ccc(C(=O)N(CC)CCN(C)C)cc12
[d] CCc1c(-c2ccc(OC)c(OC)c2)[nH]c2ccc(C(=O)NCc3ccccn3)cc12
Incoming: Rank by IC50 (largest to smallest). Form field (ranking): labels in requested order.
Outgoing: d, a, c, b

[1] COc1ccc(-c2[nH]c3ccc(C(=O)N4CC5CN(C(=O)CN(C)C)CC5C4)cc3c2C(C)C)cc1OC (stereo not shown)
[2] CCc1c(-c2ccc(OC)c(OC)c2)[nH]c2ccc(C(=O)NCCN(C)C)cc12
[3] COc1ccc(-c2[nH]c3ccc(C(=O)N4CC5CNCC5C4)cc3c2C(C)C)cc1OC (stereo not shown)
[4] Cc1cc(-c2[nH]c3ccc(C(C)(C)C(=O)N4CCC(OC5CCNCC5)CC4)cc3c2C(C)C)ccn1
Incoming: Your job: order these 4 records by IC50, ascending. // rank by listing labels in the order requested
Outgoing: 3, 4, 2, 1
(3: 0.375 µM, 4: 1.47 µM, 2: 2.51 µM, 1: 5.35 µM)

###

measurement_target: human TLR8 (Homo sapiens (Human), UniProt Q9NR97)
Sequence (Q9NR97 27-1041): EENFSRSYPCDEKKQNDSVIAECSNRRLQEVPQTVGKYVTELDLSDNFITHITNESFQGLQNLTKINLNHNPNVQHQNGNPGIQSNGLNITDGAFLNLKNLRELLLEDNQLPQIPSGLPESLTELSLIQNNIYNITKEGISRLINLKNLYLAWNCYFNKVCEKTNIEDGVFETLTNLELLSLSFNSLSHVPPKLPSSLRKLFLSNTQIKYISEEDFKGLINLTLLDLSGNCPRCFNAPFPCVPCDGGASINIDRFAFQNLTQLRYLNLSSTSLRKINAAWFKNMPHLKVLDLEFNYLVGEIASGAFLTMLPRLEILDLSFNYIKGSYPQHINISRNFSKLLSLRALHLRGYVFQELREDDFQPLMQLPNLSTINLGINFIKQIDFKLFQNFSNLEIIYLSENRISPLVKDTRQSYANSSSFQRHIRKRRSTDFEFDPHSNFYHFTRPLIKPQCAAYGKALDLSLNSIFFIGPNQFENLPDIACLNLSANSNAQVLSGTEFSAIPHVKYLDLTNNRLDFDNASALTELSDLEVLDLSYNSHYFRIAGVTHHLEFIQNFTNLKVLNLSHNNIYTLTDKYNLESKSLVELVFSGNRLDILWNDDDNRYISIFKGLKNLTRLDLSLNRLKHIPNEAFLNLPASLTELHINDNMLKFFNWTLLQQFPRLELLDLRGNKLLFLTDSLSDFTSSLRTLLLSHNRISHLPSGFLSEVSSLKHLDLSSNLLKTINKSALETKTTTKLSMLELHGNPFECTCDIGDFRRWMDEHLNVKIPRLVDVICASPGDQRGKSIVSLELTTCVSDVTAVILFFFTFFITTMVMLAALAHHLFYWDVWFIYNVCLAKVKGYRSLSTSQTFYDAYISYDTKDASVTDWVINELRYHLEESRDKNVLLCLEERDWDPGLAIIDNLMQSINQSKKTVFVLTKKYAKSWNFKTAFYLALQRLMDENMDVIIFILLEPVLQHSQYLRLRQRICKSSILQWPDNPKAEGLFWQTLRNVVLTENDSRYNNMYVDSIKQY
experimental_details: TLR8 inhibition reporter assay (HEK-Blue SEAP reporter, R848 stimulation);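 also: SEAP driven by IFN-β minimal promoter with NF-κB and AP-1 sites, 22 h incubation, compounds 0.05 nM–50 µM, inhibition scaled between agonist plus DMSO and reference inhibitor wells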
condition_notes: read-out: TLR8 IC50; HEK-Blue cells overexpressing human TLR8, R848 15.9 μM, SEAP reporter
pIC50: −log10 of the molar value.
observable: pIC50

{"columns": ["compound", "observable", "measured_result"],
 "data": [
  ["Cc1cc(-c2[nH]c3ccc(C(C)C(=O)NC4CN5CCC4CC5)cc3c2C(C)C)ccn1 (stereo not drawn) [Example 192]", "pIC50", 6.85]
]}

[1] Cc1cc(-c2[nH]c3ccc(C(C)(C)C(=O)N[C@H]4CCNC4)cc3c2C(C)C)ccn1 [Example 138]
[2] Cc1cc(-c2[nH]c3ccc(C(=O)N4CC5CN(C)CC5C4)cc3c2C(C)C)ccn1 (stereo not drawn) [Example 115]
Incoming: Between 1 and 2 , which one shows the larger pIC50 value? To answer, give the label that identifies your chosen option.
Outgoing: 2
(2: 8.46, 1: 7.19)

###

measurement_target: human TLR7 (Homo sapiens (Human), UniProt Q9NYK1)
experimental_details: TLR7 inhibition reporter assay (HEK-Blue SEAP reporter, gardiquimod stimulation)
Assay type: cell-based
condition_notes: HEK-Blue cells overexpressing human TLR7, gardiquimod 7.5 μM
observable: IC50 (nM)

{"columns": ["compound", "units_symbol", "IC50"],
 "data": [
  ["Cc1cc(-c2[nH]c3ccc(C(C)C(=O)NC4C[C@H]5CC[C@@H](C4)N5C)cc3c2C(C)C)ccn1 (stereo partly drawn)", "nM", 107]
]}

[P] CCc1c(-c2ccnc(C)c2)[nH]c2ccc(C(=O)N(CC)CCN(C)C)cc12
[Q] CCc1c(-c2ccc(OC)c(OC)c2)[nH]c2ccc(C(=O)N3CC[C@H](N(C)C)C3)cc12
[R] CCc1c(-c2ccc(OC)c(OC)c2)[nH]c2ccc(C(=O)NCc3ccc(N4CCNCC4)cc3)cc12
[S] Cc1cc(-c2[nH]c3ccc(C(C)C(=O)NC4CCCC(N)C4)cc3c2C(C)C)ccn1 (stereo not drawn) [Example 219]
Incoming: Thanks in advance: please rank these 4 entries by IC50, highest to lowest. Reply with the item labels sorted in the order that was asked for.
Outgoing: Q, R, S, P

Taken from patent US11420973B2.
